Where do the numbers come from? From patent US11584714B2.

system_name: human α-thrombin (Homo sapiens (Human))
procedure_text: Enzymatic assay for thrombin (Boc-VPR-AMC substrate)
Assay type: biochemical
details: read-out: Thrombin Ki
Counter-ions that a name gives are not always drawn.
Below, each entry is listed with its recorded Ki.

Known results for molecules:
Query: Ki; subject: Cc1cc(Cl)cc(CNC(=O)[C@H](C)NC(=O)[C@H](N)CCc2ccccc2)c1O [compound 1299, Hydrochloride]
> 25 µM

Cc1ccccc1CN1CCN[C@@H](C(=O)N[C@@H](C)C(=O)NCc2ccc(N)nc2C)C1 [compound 1348, Dihydrochloride] , same question.
< 0.5 µM

Cc1cc(C)cc(C[C@@H]2CN[C@@H](C(=O)N[C@@H](C)C(=O)NCc3ccc(N)nc3C)C2)c1 [compound 1331, Dihydrochloride] , same question.
> 25 µM

CC(=O)O/N=C(\N)c1ccc(CNC(=O)[C@H](C)NC(=O)[C@H]2C[C@H](c3ccccc3)CN2)cc1 , same question.
> 25 µM

Cc1nc(N)ccc1CNC(=O)[C@H](C)NC(=O)[C@H]1C[C@@H](c2ccccc2)CCN1CCCCCC(=O)O [compound 1412, Trifluoroacetate salt] , same question.
> 25 µM

Cc1cccc([C@@H]2CCN[C@@H](C(=O)N[C@@H](C)C(=O)NCc3ccc(C(=N)N)cc3)C2)c1 , same question.
< 0.5 µM

C[C@H](NC(=O)[C@H](N)C1Cc2ccccc2C1)C(=O)NCc1ccc(C(=N)N)cc1 , same question.
< 0.5 µM

C[C@H](NC(=O)[C@H](N)CCc1ccccc1)C(=O)NCc1ccc2c(N)n[nH]c2c1 , same question.
> 25 µM

C[C@H](NC(=O)[C@H]1C[C@H](c2ccccc2)CN1)C(=O)NCc1cc(Cl)c2[nH]cnc2c1 [compound 1417, Trifluoroacetate salt] , same question.
> 25 µM

C[C@H](NC(=O)[C@H]1C[C@@H](c2ccccc2)CN1)C(=O)NCc1ccc(N)nc1 , same question.
> 25 µM

Continuing:
Query: Ki; subject: Cc1cc(C)cc(C[C@@H]2CN[C@@H](C(=O)N[C@@H](C)C(=O)NCc3cc(Cl)ccc3-n3cnnn3)C2)c1 [compound 1416, Hydrochloride]
< 0.5 µM

C[C@H](NC(=O)[C@H]1C[C@H](c2ccccc2)CN1)C(=O)NCc1cnc2c(c1)c(Cl)cn2C [compound 1442, Dihydrochloride] , same question.
> 25 µM

CC[C@H]1N[C@@H](C(=O)N[C@@H](C)C(=O)NCc2ccc(N)nc2C)C[C@@H]1Cc1ccccc1 [compound 1413, Di-trifluoroacetate salt] , same question.
> 25 µM
